- System: ATP;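 note: ATP exposure 15 min at 22 °C before imaging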
- protocol-text: switch fluorescence ratio, 500 uM ATP over buffer (Cy3 cluster intensity, sum of 5 cycles each) (fold (ratio)); higher = stronger signal-on switching upon ATP binding; sequences stand for … in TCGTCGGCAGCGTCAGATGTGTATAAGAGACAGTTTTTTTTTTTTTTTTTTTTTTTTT…TC
- condition-summary: aptamer strand: ATP DNA aptamer (quencher-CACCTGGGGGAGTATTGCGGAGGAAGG + anchor), 100 nM annealed; ATP concentration: 500 uM
parameter: switch fluorescence ratio

Prompt: Could you share which switch fluorescence ratio value was measured for CGTTGATTAG ?
Response: 0.984

Prompt: Same again, this time with TTATGGGAAA
Response: 1.02

Prompt: Same again, this time with TCAGGGCGAA
Response: 0.995

Prompt: Same again, this time with TAAGTTTTTT
Response: 0.99

Prompt: Same again, this time with ACCGGGGCTC
Response: 1.05

Prompt: Same again, this time with GAGGGGTGTC
Response: 0.978

Prompt: Same again, this time with GCTGTGGCT
Response: 0.972

Prompt: Same again, this time with AGGGGAATCG
Response: 1.01

Prompt: Same again, this time with ATCGCTATGT
Response: 1.05

Prompt: Same again, this time with GAGGGCGTTT
Response: 0.98

Prompt: Same again, this time with CATGGGAAGA
Response: 0.975

Prompt: Same again, this time with ACGGTGACGT
Response: 1.01

Prompt: Same again, this time with AGGTGGCTAG
Response: 1.03

Prompt: Same again, this time with TTAGTGTATC
Response: 0.982

Prompt: Same again, this time with GAATAATTGG
Response: 0.996

Prompt: Same again, this time with AAATTTTTAC
Response: 1.02

Prompt: Same again, this time with GGGAAAAGGG
Response: 0.998

Prompt: Same again, this time with ACATAGGTCA
Response: 1.02

Prompt: Same again, this time with TTGCTTGGTG
Response: 1.03

Prompt: Same again, this time with TAAGTATAGT
Response: 1.02

Prompt: Same again, this time with TTATTTGTGT
Response: 0.987

Prompt: Same again, this time with GGAGTCGGGC
Response: 0.981

Prompt: Same again, this time with TATAGGGGTG
Response: 1.03

Prompt: Same again, this time with TTGATGATCC
Response: 0.978

Prompt: Same again, this time with TTCGACCTAG
Response: 0.986

Prompt: Same again, this time with TATTCGAAAT
Response: 1.02

Prompt: Same again, this time with GATTGGGTAC
Response: 1.03

Prompt: Same again, this time with TGTGGGTCGG
Response: 0.968

Prompt: Same again, this time with TGTTTTCATT
Response: 0.973

Prompt: Same again, this time with GGTTTAGCG
Response: 1.01

Prompt: Same again, this time with GAGGGAAACT
Response: 1.05

Prompt: Same again, this time with TAGGGCATGT
Response: 0.98

Prompt: Same again, this time with CTTCACAGGG
Response: 1.06

Prompt: Same again, this time with AATGATAAGC
Response: 1.04

Prompt: Same again, this time with TGTTTGAAAT
Response: 0.998

Prompt: Same again, this time with TGGGGGGAAT
Response: 1.03

Prompt: Same again, this time with AAGGAAGACA
Response: 0.995

Prompt: Same again, this time with CCATCATTTT
Response: 0.99

Prompt: Same again, this time with GTTTATTCCT
Response: 1.02

Prompt: Same again, this time with CGATTAAGGT
Response: 1.02

Prompt: Same again, this time with TGTGGGTGGT
Response: 1.01

Prompt: Same again, this time with CTGGTTATTT
Response: 1.04

Prompt: Same again, this time with TAACGGTTTT
Response: 1.01
